# credit: the supplement of paper PMC8882468

Test system: HCI-001 (organoid from a triple-negative breast cancer xenograft)
Experiment: CTG-3D luminescence at 96 h relative to day-0 seeding control (ratio to day 0); higher = more growth / less cytotoxicity; PDxO 3D drug screen, 96 h, CTG-3D normalised to day-0 seeding control.
Conditions: 1 µM; days in culture: 269

{"SMILES": "COc1cc2c(Oc3ccc4[nH]c(C)cc4c3F)ncnc2cc1OCCCN1CCCC1", "TARGET_SYSTEM": "HCI-001", "CTG-3D luminescence at 96 h": 2.09}
{"SMILES": "C[C@H](NC(=O)CCC(F)(F)F)C(=O)N[C@@H]1C(=O)N(CCO)c2ncccc2-c2ccccc21", "TARGET_SYSTEM": "HCI-001", "CTG-3D luminescence at 96 h": 1.39}
{"SMILES": "CC(C)(C(=O)NCC(F)(F)C(F)(F)F)C(=O)N[C@@H]1C(=O)Nc2ccccc2-c2ccccc21", "TARGET_SYSTEM": "HCI-001", "CTG-3D luminescence at 96 h": 1.67}
{"SMILES": "Cc1cc(Nc2ncnc3ccc(NC4=NC(C)(C)CO4)cc23)ccc1Oc1ccn2ncnc2c1", "TARGET_SYSTEM": "HCI-001", "CTG-3D luminescence at 96 h": 1.38}
{"SMILES": "C=CCn1c(=O)c2cnc(Nc3ccc(N4CCN(C)CC4)cc3)nc2n1-c1cccc(C(C)(C)O)n1", "TARGET_SYSTEM": "HCI-001", "CTG-3D luminescence at 96 h": 0.496}
{"SMILES": "CC[C@H](NC(=O)[C@H](C)NC)C(=O)N1C[C@@H](O)C[C@H]1Cc1c(-c2[nH]c3cc(F)ccc3c2C[C@@H]2C[C@H](O)CN2C(=O)[C@H](CC)NC(=O)[C@H](C)NC)[nH]c2cc(F)ccc12", "TARGET_SYSTEM": "HCI-001", "CTG-3D luminescence at 96 h": 1.68}
{"SMILES": "O=C(c1ccc(F)c(F)c1Nc1ccc(I)cc1F)N1CC(O)([C@@H]2CCCCN2)C1", "TARGET_SYSTEM": "HCI-001", "CTG-3D luminescence at 96 h": 1.26}
{"SMILES": "C=CC(=O)N1CCC[C@@H](n2nc(-c3ccc(Oc4ccccc4)cc3)c3c(N)ncnc32)C1", "TARGET_SYSTEM": "HCI-001", "CTG-3D luminescence at 96 h": 1.06}
{"SMILES": "Nc1ccn([C@@H]2O[C@H](CO)[C@@H](O)C2(F)F)c(=O)n1", "TARGET_SYSTEM": "HCI-001", "CTG-3D luminescence at 96 h": 0.42}
{"SMILES": "O=C(O)C1(C(=O)O)CCC1.[NH2-].[NH2-].[Pt+2]", "TARGET_SYSTEM": "HCI-001", "CTG-3D luminescence at 96 h": 1.83}

====

Tested on: HCI-027 (organoid from a triple-negative breast cancer xenograft)
Test: CTG-3D luminescence at 96 h relative to day-0 seeding control (ratio to day 0); higher = more growth / less cytotoxicity; PDxO 3D drug screen, 96 h, CTG-3D normalised to day-0 seeding control.
Details: 0.005 µM; days in culture: 194

{"SMILES": "C=CC(=O)N1CCC[C@@H](n2nc(-c3ccc(Oc4ccccc4)cc3)c3c(N)ncnc32)C1", "CTG-3D luminescence at 96 h": 1.52}
{"SMILES": "O=C(/C=C/c1cccnc1)NCCCCC1CCN(C(=O)c2ccccc2)CC1", "CTG-3D luminescence at 96 h": 0.26}
{"SMILES": "Cc1cc(Nc2ncnc3ccc(NC4=NC(C)(C)CO4)cc23)ccc1Oc1ccn2ncnc2c1", "CTG-3D luminescence at 96 h": 1.49}
{"SMILES": "Cc1nc(-c2cn3c(n2)-c2ccc(-c4cnn(C(C)(C)C(N)=O)c4)cc2OCC3)n(C(C)C)n1", "CTG-3D luminescence at 96 h": 1.35}
{"SMILES": "CC(C)(C(=O)NCC(F)(F)C(F)(F)F)C(=O)N[C@@H]1C(=O)Nc2ccccc2-c2ccccc21", "CTG-3D luminescence at 96 h": 1.38}
{"SMILES": "CCc1c2c(nc3ccc(O)cc13)-c1cc3c(c(=O)n1C2)COC(=O)[C@]3(O)CC", "CTG-3D luminescence at 96 h": 0.614}

====

CTG-3D luminescence at 96 h reference
Tested on: HCI-003.E2 (organoid from an ER-positive breast cancer xenograft)
Assay: CTG-3D luminescence at 96 h relative to day-0 seeding control (ratio to day 0); higher = more growth / less cytotoxicity; PDxO 3D drug screen, 96 h, CTG-3D normalised to day-0 seeding control.
Conditions: 10 µM
MEASURED_METRIC: CTG-3D luminescence at 96 h

{"SMILES": "CC(=O)O[C@H]1C(=O)[C@@]2(C)[C@H]([C@H](OC(=O)c3ccccc3)[C@]3(O)C[C@H](OC(=O)[C@H](O)[C@@H](NC(=O)c4ccccc4)c4ccccc4)C(C)=C1C3(C)C)[C@]1(OC(C)=O)CO[C@@H]1C[C@@H]2O", "NUMBER": 0.787}
{"SMILES": "CC(C)(C(=O)NCC(F)(F)C(F)(F)F)C(=O)N[C@@H]1C(=O)Nc2ccccc2-c2ccccc21", "NUMBER": 2.11}
{"SMILES": "Cc1cc(Nc2ncnc3ccc(NC4=NC(C)(C)CO4)cc23)ccc1Oc1ccn2ncnc2c1", "NUMBER": 1.31}
{"SMILES": "CCN1CCN(Cc2ccc(Nc3ncc(F)c(-c4cc(F)c5nc(C)n(C(C)C)c5c4)n3)nc2)CC1", "NUMBER": 0.491}

====

System: HCI-012 (organoid from a breast cancer xenograft)
Experiment: CTG-3D luminescence at 96 h relative to day-0 seeding control (ratio to day 0); higher = more growth / less cytotoxicity; PDxO 3D drug screen, 96 h, CTG-3D normalised to day-0 seeding control.
Details: 0.1 µM; days in culture: 143
Values of CTG-3D luminescence at 96 h greater than or equal to 0.1 map to true (1); values below map to false (0).

{"COMPOUND": "CCc1c2c(nc3ccc(O)cc13)-c1cc3c(c(=O)n1C2)COC(=O)[C@]3(O)CC [SN-38]", "ASSIGNED_CLASS": "false (0)"}
{"COMPOUND": "Nc1ccn([C@@H]2O[C@H](CO)[C@@H](O)C2(F)F)c(=O)n1 [gemcitabine]", "ASSIGNED_CLASS": "true (1)"}
{"COMPOUND": "NC1(C(=O)N[C@@H](CCO)c2ccc(Cl)cc2)CCN(c2nc[nH]c3nccc2-3)CC1 [capivasertib]", "ASSIGNED_CLASS": "true (1)"}
{"COMPOUND": "C/C=C1\\NC(=O)[C@H]2CSSCC/C=C/[C@H](CC(=O)N[C@H](C(C)C)C(=O)N2)OC(=O)[C@H](C(C)C)NC1=O [romidepsin]", "ASSIGNED_CLASS": "false (0)"}
{"COMPOUND": "C[C@]12CC[C@@H]3c4ccc(O)cc4C[C@@H](CCCCCCCCC[S+]([O-])CCCC(F)(F)C(F)(F)F)[C@H]3[C@@H]1CC[C@@H]2O (stereo partly specified) [fulvestrant]", "ASSIGNED_CLASS": "true (1)"}
{"COMPOUND": "CC(C)(C(=O)NCC(F)(F)C(F)(F)F)C(=O)N[C@@H]1C(=O)Nc2ccccc2-c2ccccc21", "ASSIGNED_CLASS": "true (1)"}

====

Tested on: HCI-027
Assay: CTG-3D luminescence at 96 h relative to day-0 seeding control (ratio to day 0); higher = more growth / less cytotoxicity; PDxO 3D drug screen, 96 h, CTG-3D normalised to day-0 seeding control.
Conditions: 12.5 pM; days in culture: 201
Examples of compounds with documented CTG-3D luminescence at 96 h follow.
MEASURED_METRIC: CTG-3D luminescence at 96 h

{"SMILES": "C[C@H](NC(=O)CCC(F)(F)F)C(=O)N[C@@H]1C(=O)N(CCO)c2ncccc2-c2ccccc21", "NUMBER": 2.13}
{"SMILES": "Cc1cc(Nc2ncnc3ccc(NC4=NC(C)(C)CO4)cc23)ccc1Oc1ccn2ncnc2c1", "NUMBER": 2.47}
{"SMILES": "CCN(c1cc(C#CCN2CCOCC2)cc(C(=O)NCc2c(C)cc(C)[nH]c2=O)c1C)[C@H]1CC[C@H](N(C)CCOC)CC1", "NUMBER": 3.28}
{"SMILES": "Nc1ccn([C@@H]2O[C@H](CO)[C@@H](O)C2(F)F)c(=O)n1", "NUMBER": 2.19}
{"SMILES": "CC1(C)CCC(c2ccc(Cl)cc2)=C(CN2CCN(c3ccc(C(=O)NS(=O)(=O)c4ccc(N[C@H](CCN5CCOCC5)CSc5ccccc5)c(S(=O)(=O)C(F)(F)F)c4)cc3)CC2)C1", "NUMBER": 3.21}
{"SMILES": "Cc1cc(Nc2ncc(Cl)c(Nc3ccccc3S(=O)(=O)C(C)C)n2)c(OC(C)C)cc1C1CCNCC1", "NUMBER": 2.21}
